Reference source: patent US20150132314A1

# Target Under Test: T1, human IL-17F homodimer (human, UniProt Q96PD4 31-163)
# T1 sequence (looked up): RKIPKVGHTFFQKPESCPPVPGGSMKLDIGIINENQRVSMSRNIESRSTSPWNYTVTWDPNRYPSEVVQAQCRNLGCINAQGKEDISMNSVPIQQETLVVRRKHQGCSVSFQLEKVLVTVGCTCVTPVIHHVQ
# Assay Info: cell-based or functional assay
Measured Attribute: IC50 (nM), IL-6 secretion by MEF cells stimulated with IL-17F (5 ng/ml) and mTNF-α

INSERT INTO measurements (binder, data_value) VALUES
  ('1F1 antibody (antibody, V domains shown) VH: EVQLLESGGGLVQPGGSLRLSCAASGFTFSSYVMSWVRQVPGKGLEWVSAISGRGGNTFYADSVKGRFTISRDNSKNTLYLQMDSLRAEDTAVYYCAKDDRRIAAGSFDYWGQGTTVTVSS VL: AIQLTQSPSSLSASVGDRVTITCRASQGISSALAWYQQKPGKAPKLLIYDVSSLESGVPSRFSGSGSGTDFTLTISSLQPEDFATYYCQQFNSYPLTFGGGTKVEIK', 1.1);
